Entry source: ChEMBL document CHEMBL2203039

species on record: Mus musculus; experiment: animal or person; format: functional, organism-based; conditions: Balb/c, Blood
Mark condition met only for IC50 values smaller than 20 nM; exact matches and larger values are condition not met.

c1cc2nc(Oc3ccc(CN4CCCCC4)cc3)sc2cn1 ... condition not met

Exam item: I'd appreciate it if you could check whether c1cnc2nc(Oc3ccc(OCCN4CCCCC4)cc3)sc2c1 has IC50 smaller than 20 nM.
Marked response: condition met

Exam item: Does the reported IC50 of the following molecule sit strictly below 20 nM? CC(=O)NC1CC2CCC(C1)N2CCOc1ccc(Oc2nc3ncccc3s2)cc1 (stereo unspecified)
Marked response: condition not met

Exam item: Dear colleague, could you confirm whether IC50 of O=C1CCCN1C1CCN(CCc2ccc(Oc3nc4ncccc4s3)cc2)CC1 falls below 20 nM? Thanks.
Marked response: condition not met

Exam item: Confirm or reject: IC50 of Cc1ccnc2nc(Oc3ccc(CN4CCCCC4)cc3)sc12 lies strictly below 20 nM
Marked response: condition not met
